TEST DETAILS: yeast display, Sf9 membrane polyspecificity reagent, FACS + sequencing; frameworks hold sequencing errors
VALUE KIND: polyreactivity (PSR sort gate)

Some sequences with recorded polyreactivity (PSR sort gate):
QVQLVESGGGLVQAGGSLRLSCAASGSTFFPYAMGWYRQAPGKERELVAGISSDGGTSYADSVKGRFTISRDNAKNTVYLQMNSLKPEDTAVYYCAALQADRGGWYDYWGQGTQVTVSS low polyreactivity
QVQLVESGGGLVQAGGSLRLSCAASGFIFSYYVMGWYREAPGKERELVAAISWNGGSTFYADSVKGRFTISRDNAKNSVYLQMNSLKPEDTAVYYCAAYPRFYGGKYGEYGYWGQGTQVTVSS high polyreactivity
QVQLVESGGGLVQAGGSLRLSCAASGFTFYFYAMGWYRQAPGKERELVAAITGGTSTYYADSVKGRFTISRDNAKNTVYFQRNSLKPEDTSVYYCAAGYLDVLWLLDLLQLYGYWGQGNQVTVSS low polyreactivity
QVQLVESGGGLVQAGGSLRLSCAASGSIFQWYAMGWYRQAPGKERELVAVISRGGRTNYADSVKGRFTISRDNAKNTVYLQMNSLKPEDTAVYYCAAAVWFERGFSYRWRYGYWGQGTQVTVSS high polyreactivity

Entry `QVQLVESGGVLVQAGGSLRLSCAASGSIFDSNAMGWYRQAPGKERELVAAISWSGSRTYYADSVKGRFTISRDYAKNTVYLQILSLKPEDTAVYYCAALVRRYGKYDYWGQCTQVTVSS` — recorded polyreactivity (PSR sort gate) = high polyreactivity

---

TEST DETAILS: yeast display, Sf9 membrane polyspecificity reagent, FACS + sequencing; frameworks hold sequencing errors
VALUE KIND: polyreactivity (PSR sort gate)

Some sequences with recorded polyreactivity (PSR sort gate):
QLQLVESGGGLVQAGGSLRLSCASSGSIFLFNAMGWYRQAAGQERELVAAITSSGTRTYYADSVKGRFTISRDNAKNTVYLQMNSLKPEDTAVYYCNAVGPVDSYHRYYYWGQGTQGTVSS low polyreactivity
QVQLVESGGGLVQAGGSLRLSCAASGRTFGRNTMGWYRQAPGKERELVAGISRSAGRTYYADSVKGRFTISRDNAKNTVYLQMNSLKPEDTAVYYCAARYQGNYRTDKYDYWGQGTQVTVSS high polyreactivity
QVQLVESGGGLVQAGGSLRLSCDASGRIFLDYVMGWYRQAPGKERELVAAISWSGDRTDYADSVKGRFTISRDNAKNTVYLQMNSLKPEDTAVYYCATTWYFAYSDDYKFDYWGQGTQVTVSS low polyreactivity
QVQLVESGGGLVQAGGSLRLRGAASGSTFGPNAMGWYRPAPGKEREFVASISWRGGRTYYADSVKGRFTISRDNAKNTVYLQMNSLNPEDTAVYYCAAVSYPAVYGFDYWGQGTQVTVSS high polyreactivity
QVQLVDSGGGLVQAGGSLRLSCAASGSIFYWYAMGWYRQAPGKERELVAAISWSGGSTFYADSVKGRFTISRDNAKNTVYLQMNSLKPEDTAVYYCAAETPYDYDYWGQGTQVTVSS high polyreactivity
QVQLVESGGGLVQAGGSLRLSCAASGSIFSSNVMGWYRQAPGKERELVAAITVRGSRTYYADSVKGRFTISRDNAKNTVYLQMNSLKPEDTAVYYCNAVARVLGSDRRLQYYYWGQGTQVTVSS high polyreactivity

Entry `QVQLVESGGGLVQAGGSLRLSCAASGFTFYWYDMGWYRQAPGKEWELVATMSPGGGTNYADSVKGRFTISRDNAKNTVSLQMNSLKPEDTSVYYCAADGSAGYQWGYDFEGDYWGQGTQLTVSS` — recorded polyreactivity (PSR sort gate) = high polyreactivity

Entry `QVQLVESGGGLVQAGGSLRLSCAASGFTFSSYAMGWYRQAPGKERELVAAISGSGDRTRYADSVKGRFTISRDNAKNTVYLQMNSLKPEDTAVYYCAAKSPGSQTAMDYWGQGTQVTVSS` — recorded polyreactivity (PSR sort gate) = high polyreactivity

---

TEST DETAILS: yeast display, Sf9 membrane polyspecificity reagent, FACS + sequencing; frameworks hold sequencing errors
VALUE KIND: polyreactivity (PSR sort gate)

QVQLVESGGGLVQAGGSLRLSCAASGFTFGYYALGWYRQAPGKERELVAAINYSGGSTYYADSVKGRFTISRDNAKNTVYLQMNSLKPEDTAVYYCAAQSYYGRGYWGQGTQVTVSS high polyreactivity
QVQLVESGGGLVQAGGSLRLSCAASGFTFKLNAMGWYRPAPGKERELVAAISWGGGTTYYADSVKGRFTISRDNAKNTVYLQMNSLKPEDTAVYYCAADGTGTYDYWGQGTQVTVSS low polyreactivity
QVQLVESGGGLVQAGGSLRLSCAASGFIFSYYAMGWYRQAPGKERELVAAISRNGGRTYYADSVKGRFTISRDNAKNTVYLQMNSLIPEDTAVYYCAATTYRTSSYIRYGSPKHDDYWGQGTHVTVSS high polyreactivity
QVQLVESGGGLVQAGGSLRLSCAASGRTFGGYTMGWYRQAPGKERELVAAISWGGGSTYYADSVKGRFTISRDNAKNTVYLQMNSLKPEDTAVYYCAAVSPNLRLFGYRYRYEYWGQGTQVTVSS high polyreactivity

Next up:
Entry `QVQLVESGGGLVQAGGSLRLSCAASGSTFQSYAMGWYRQAPGKERELVAAISTSDTDRTYYADSVKGRFTISRDNAKNTVYLQMNSLKPEDTAVYYCNADGYSHGDWYGYWGQGTQVTVSS` — recorded polyreactivity (PSR sort gate) = low polyreactivity

---

TEST DETAILS: yeast display, Sf9 membrane polyspecificity reagent, FACS + sequencing; frameworks hold sequencing errors
VALUE KIND: polyreactivity (PSR sort gate)

Some sequences with recorded polyreactivity (PSR sort gate):
QVQLVESGGCLVEAGGSLRLSCAASGRIFVHKAMGWYRQAPGKEREFVAAISLRGGSTYYADSVKGRFTISRDNAKNTVYLQMNFLKPEVTAVYYCAAVPAHFYGYDYWGQGTQVTVSS low polyreactivity
QVQVVESGGGLVQAGGSLRLSCAASGRTFFRNAMGWYRQARGKERELVAAISKRGGSTRYADSVKGRFTISRDQAQNPDYLQMNSLKPEDTAVYYCAAASRLEYSHATLYYWGQGTQVTVSS high polyreactivity
QVQLVESGGGLVQAGGSLRFSCAASGGIYYLYAMGWYRQAPGKEREFVAAISSSGGSTNYADSVMGRFTISRDNAKNTVYLQMNSLKRDDSAVYYCNAVDWKQEVGGWVEYDYWGQGTQVNVSS high polyreactivity
QVQLVESGGGLVQAGGSLRLSCAASGRTFAYYAMGWYRQAPGTERELVATINSAGCTYYADSVKGRFTISRDNAKNTVYLQMNSLKPEDTAVYYCNAAYKSQVRYRRYIYWGQGTQVTVSS high polyreactivity
QVQLVESGGGLVQAGGSLRLSCAASGFIFKPYAMGWYRQAPGKERELVAAITVNGGTTYYADSVKGRFTISRDNAKNTVYLQMNSLKPEDTAVYYCNRGRPGGPSWYHYDYWGQGTQGTVSS high polyreactivity

Entry `QVQLVESGGGLVQAGGSLRLSCAASGSTFGANALGWYRQAPGKERELVAAITGGSTFYADSVKGRFTISRDNAKNTVYLQMNSLKPEDTSVYYCAVDYTYSYVDYWSEYDYWGQGTQVTVSS` — recorded polyreactivity (PSR sort gate) = low polyreactivity

Entry `QVQLVESGGGLVQAGGSLRLSCSASGSTFEKNAMGWYRQAPGKERELVAAISNGVSTYYADSVKGRFTNSRDNAKNTVYLKINSLKPEDTAVYYCAAVLFFGAETVYYDKFDYWGQGTQVTVSS` — recorded polyreactivity (PSR sort gate) = low polyreactivity

---

TEST DETAILS: yeast display, Sf9 membrane polyspecificity reagent, FACS + sequencing; frameworks hold sequencing errors
VALUE KIND: polyreactivity (PSR sort gate)

Some sequences with recorded polyreactivity (PSR sort gate):
QVQLVESGGGLVQAGGSLRLSCAASGRNFRKYTMGWYRQAPGKERELVATISNSGVSTYYADSVKGRFTISRDYAKNTVYLQMNSLKPEDTAVYYCSKEWLYYNGFFRSYYWGQGTQVNVSS high polyreactivity
QVQLVESGGGLVQAGGSLRLNCAASGNIFISYAMGWYRQAPGKERELVAAISRSGGSTYYADSVKGRFTISRDYAKNTVYLQMNSLKPEDTAVYYCAAYIGPGRYGSWGQGTQVTVSS high polyreactivity
QVQLVESGGGLVQAGGSLRLSCAASGFTFSYYAMGWYRQAPGKERELVAAISWSGTATYYADSVKGRFTISRDNAKNTVYLQMNSLKPEDTAVYYCAAGYSASGKVDYRGQGTQVTVSS high polyreactivity
QVQLQESGGGLVQASGSPRLSCAASGNIFDADIMGWYRQAPGKQCELVASITDGGSTNYADSEKGRFTISSDNAKNTVYLQMNSLKPEDTAVYYCAAIAYPDIPTYFDYDSDYFYWGQGTHVTVSS high polyreactivity
QVQLVESGGGLVQAGGTLPLSCAASGRTFNGNAMGWYRQAPGKERELVATINYSGGSTYYADSVKGRFTISRDNAKNTVYLQMNSLKPEDNAVYYCAAGGYPWYLRRGGFAGYDYWGQGTQLTVSS low polyreactivity

Entry `QVQLVESGGGLVQAGGSLRLSCAASGRTFAYYAMGWYKQAPGKERELVAAISWSGGSTYYADSVKGRFTISRDNAKYTVYLQMNSLKPEDTAVYYCNTLGGTEYGYWGQGTQVTVSS` — recorded polyreactivity (PSR sort gate) = high polyreactivity

Entry `QVQVVESGGGLVQAGGSLRLSCAASGFTFSFNAMGSYRQAPWKERELVAAIDRGVSTYYADSVKGRFTISRDNAKNTVYLQMKSLKPEDTAVSYCAVEYWEPYDMDYWGQGTQVTVSS` — recorded polyreactivity (PSR sort gate) = high polyreactivity

Entry `QVQLVESGGGLVQAGGSLRLSCAASGRTFKKYAMGWYRQAPGKERELVAAITGSGGSTYYADSVKVRYTISRDNAKNTVYLQMNSLKPEDTAVYYCAAYAYGVGHSQDGGNYWGQCTQVTVSS` — recorded polyreactivity (PSR sort gate) = low polyreactivity

Entry `QVQLVESGGGLVQAGGSLRLSCAASGSTFGIYSMGWYRQAPGKERELVAAISVRGGRTYYADSVKGRFTISRDNAKNTVYLQMNSLKPEDTAVYYCAPTWYWGNDYWGQGTQVTVSS` — recorded polyreactivity (PSR sort gate) = low polyreactivity

Entry `QVQLVESGGGLVQAGGSLRLSCAASGSIFRSNGMGWYREAPGKERELVAAITSSGGSTYYADTVKGRFTISRDNAKNTVYLHMNSLKPEDTAVYYCAKRWNWSYNYWGQGTQVTVSS` — recorded polyreactivity (PSR sort gate) = high polyreactivity

Entry `QVQLVESGGGLVQAGGSLPLSCYDSGITIPDYYMGCFRQSPGKERELVAAITYRSGSTYNADSVKGRFTISRDNAKNTVYLQMNSLKQEDTAVFYCAAKRFLLRYYTKQYNYWGLGTQVTVSS` — recorded polyreactivity (PSR sort gate) = high polyreactivity
